Target: Vitamin D3 receptor (Homo sapiens)
Assay: Antagonist activity against 1-alpha,25-dihydroxy vitamin D3-induced HL60 cell differentiation by NBT reduction method relative to TEI-9647
Type: functional, cell-based
Design: scale not given: the % may be the effect or the level left
Conditions: HL-60
# key: entry, value: Activity
The response must be a number in % with no trailing unit.

Some compounds with known Activity results, for comparison:
# input GET /values?readout=Activity&item= "C=C1/C(=C\C=C2/CCC[C@]3(C)[C@@H]([C@H](C)C[C@H]4OC(=O)C(=C)[C@H]4CC(C)C)CC[C@@H]23)C[C@@H](O)[C@H](OCCCO)[C@@H]1O"
# output 25

# input Activity for "C=C1C[C@@H](C[C@@H](C)[C@H]2CC[C@H]3/C(=C/C=C4/C[C@@H](O)[C@H](CCCO)[C@H](O)C4=C)CCC[C@]23C)OC1=O" ?
# output 100

# input # Activity lookup, item "C=C1/C(=C\C=C2/CCC[C@]3(C)[C@@H]([C@H](C)C[C@H]4OC(=O)C(=C)[C@H]4CC)CC[C@@H]23)C[C@@H](O)[C@H](OCCCO)[C@@H]1O"
# output 27

# input What does the data say about its Activity? Entry: "C=C1/C(=C\C=C2/CCC[C@]3(C)[C@@H]([C@H](C)C[C@H]4OC(=O)C(=C)[C@@H]4C)CC[C@@H]23)C[C@@H](O)C[C@@H]1O"
# output 7

Next, consider the following compound.
# input Activity lookup needed for "C=C1/C(=C\C=C2/CCC[C@]3(C)[C@@H]([C@H](C)C[C@@H]4OC(=O)C(=C)[C@@H]4CC)CC[C@@H]23)C[C@@H](O)[C@H](C)[C@@H]1O" , thanks.
# output 1290
